# mass density per record follows
conditions: 303.15 K; 101.33 kPa; Liquid; Vibrating tube method
quantityName: mass density (kg/m3)

{"compound": "COCC[N+]1(C)CCCC1.O=S(=O)([N-]S(=O)(=O)C(F)(F)F)C(F)(F)F", "valueObserved": 1450}
{"compound": "CCCCCCCCCCCCCC[P+](CCCCCC)(CCCCCC)CCCCCC.FC(F)(F)C(F)(F)[P-](F)(F)(F)(C(F)(F)C(F)(F)F)C(F)(F)C(F)(F)F", "valueObserved": 1177.6}
{"compound": "CCCC[N+]1(C)CCCC1.FC(F)(F)C(F)(F)[P-](F)(F)(F)(C(F)(F)C(F)(F)F)C(F)(F)C(F)(F)F", "valueObserved": 1577.9}
{"compound": "CCCCCCOS(=O)(=O)[O-].CC[n+]1ccn(C)c1 [3-ethyl-1-methyl-1H-imidazolium hexyl sulfate]", "valueObserved": 1127}
{"compound": "CCCC[N+]1(C)CCCC1.O=S(=O)([N-]S(=O)(=O)C(F)(F)F)C(F)(F)F", "valueObserved": 1390.5}
{"compound": "CCCC[N+]1(C)CCCC1.O=S(=O)([O-])C(F)(F)F [1-butyl-1-methylpyrrolidinium trifluoromethanesulfonate]", "valueObserved": 1248.7}
{"compound": "CCOS(=O)(=O)[O-].CCn1cc[n+](C)c1 [1-ethyl-3-methylimidazolium ethyl sulfate]", "valueObserved": 1234.4}
{"compound": "CCCCn1cc[n+](C)c1C.O=S(=O)([N-]S(=O)(=O)C(F)(F)F)C(F)(F)F", "valueObserved": 1414.8}

Where do these numbers come from? They come from the NIST ThermoML archive (doi:10.1021/je200883w).
